# ASSAY_TARGET: SARS-CoV-2 M^pro (Severe acute respiratory syndrome coronavirus 2)
pIC50: −log10 of the molar value. Numbered stars: 1 amine (or outer) side, 2 acyl side, 3 side chain; on linkers, the order of the positions; unused ones are H or OH. Square brackets hold non-standard residues; d marks the D form. Peptide text beside a SMILES is read from it. X1 = O=C(Cc1ccc(CCN[*:1])cc1)[*:2]
READOUT_NAME: pIC50

Problem: Recorded pIC50 of NCCCC[C@@H]1NC(=O)[C@H](CO)NC(=O)[C@H](CCC(N)=O)NC(=O)[C@H](Cc2ccccc2)NC(=O)Cc2ccc(cc2)CCNC1=O [UCI-1] (cyclo(FQSK[X1])) , please.
Solution: ~3.80
